Origin of measurements: ChEMBL document CHEMBL2062363

tested.target: L-type voltage-dependent Ca2+ channel (Homo sapiens, UniProt O60840+Q01668+Q13698+Q13936)
experiment: Inhibition of L-type voltage-dependent Ca2+ channel at 1 uM

{"molecule": "C=CCOC(=O)C1=C(C)NC(C)=C(C(=O)OCC=C)C1c1cccc(Cl)c1", "inhibition at 1 µM / %": 100}
{"molecule": "COCCOC(=O)C1=C(C)N=C(C)/C(=C(/O)OCCOC)C1/C=C/c1ccccc1OC (configuration not stated)", "inhibition at 1 µM / %": 10.6}
{"molecule": "CCOC(=O)C1=C(C)N(c2ccc(OC)cc2)C(C)=C(C(=O)OCC)C1c1ccccc1", "inhibition at 1 µM / %": 38.7}
{"molecule": "COC(=O)C1=C(C)N(C)C(C)=C(C(=O)OC)C1c1ccc(Cl)c([N+](=O)[O-])c1", "inhibition at 1 µM / %": 35.1}
{"molecule": "CC1=C(C(=O)OC(C)C)C(c2ccc(C)cc2)C(C(=O)OC(C)C)=C(C)N1", "inhibition at 1 µM / %": 47}
{"molecule": "COC(=O)C1=CNC=C(C(=O)OC)C1c1ccccc1Cl", "inhibition at 1 µM / %": 19.7}
{"molecule": "CCOC(=O)C1=C(C)NC(C)=C(C(=O)OCC)C1c1ccccc1", "inhibition at 1 µM / %": 100}
{"molecule": "CCOC(=O)C1=C(C)NC(C)=C(C(=O)OCC)C1c1ccc(C(C)(C)C)cc1", "inhibition at 1 µM / %": 32.1}
{"molecule": "COC(=O)C1=C(C)NC(C)=C(C(=O)OC)C1c1cccc(F)c1", "inhibition at 1 µM / %": 91.9}
{"molecule": "CCOC(=O)C1=C(C)NC(C)=C(C(=O)OC)C1c1ccc(Cl)c(Cl)c1 (configuration not stated)", "inhibition at 1 µM / %": 100}
{"molecule": "CCOC(=O)C1=C(C)NC(C)=C(C(=O)OCC)C1c1cccc([N+](=O)[O-])c1", "inhibition at 1 µM / %": 100}
{"molecule": "CC1=C(C(=O)OCc2ccccc2)C(c2ccc(O)cc2)C(C(=O)OCc2ccccc2)=C(C)N1", "inhibition at 1 µM / %": 72.8}
{"molecule": "COC(=O)C1=C(C)NC(C)=C(C(=O)OC)C1c1ccc2c(c1)OCO2", "inhibition at 1 µM / %": 37.2}
{"molecule": "CCOC(=O)C1=C(C)NC(C)=C(C(=O)OCC)C1c1ccc2c(c1)OCO2", "inhibition at 1 µM / %": 38.2}
{"molecule": "COC(=O)C1=C(C)NC(C)=C(C(=O)OC)C1c1ccc(I)cc1", "inhibition at 1 µM / %": 12.3}
{"molecule": "COC(=O)C1=C(C)NC(C)=C(C(=O)OC)C1c1ccc(Cl)cc1", "inhibition at 1 µM / %": 92.6}
{"molecule": "COC(=O)C1=C(C)N(C)C(C)=C(C(=O)OC)C1c1ccc(Cl)c(Cl)c1", "inhibition at 1 µM / %": 45.6}
